# subject of test: T1, ZIKV (prM80E) with a C-terminal myc-myc-hexahistidine tag (Zika virus, UniProt A0A024B7W1 104-694)
# T1 construct: also called ZIKV (prM80E)-mmH; ZIKV-mmH
# assay explanation: SPR, mAb captured, 37C
result type: t½ (min)
// return numeric value only (unit: min, not printed)

Memo: H4H25617P (antibody, V domains shown) VH: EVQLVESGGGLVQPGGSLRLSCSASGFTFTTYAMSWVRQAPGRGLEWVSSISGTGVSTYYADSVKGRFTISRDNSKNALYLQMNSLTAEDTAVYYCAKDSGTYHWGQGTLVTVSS VL: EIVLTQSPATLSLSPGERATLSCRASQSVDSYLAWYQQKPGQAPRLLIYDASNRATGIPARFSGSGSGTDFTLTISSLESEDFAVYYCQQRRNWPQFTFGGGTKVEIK , reported t½: 1.6

So for H4H25710N (antibody, V domains shown) VH: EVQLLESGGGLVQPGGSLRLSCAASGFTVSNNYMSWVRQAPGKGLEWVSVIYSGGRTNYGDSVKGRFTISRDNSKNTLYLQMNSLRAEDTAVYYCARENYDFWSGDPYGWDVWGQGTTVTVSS VL: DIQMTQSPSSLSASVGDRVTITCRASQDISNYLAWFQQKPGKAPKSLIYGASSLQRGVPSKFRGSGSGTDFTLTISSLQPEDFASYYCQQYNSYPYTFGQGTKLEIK , the logged t½ turned out to be 1.8

# binder H4H25641P (antibody, V domains shown) VH: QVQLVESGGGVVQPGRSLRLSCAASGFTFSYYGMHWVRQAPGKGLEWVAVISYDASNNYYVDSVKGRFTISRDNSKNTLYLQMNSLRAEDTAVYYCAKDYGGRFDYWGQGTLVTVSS VL: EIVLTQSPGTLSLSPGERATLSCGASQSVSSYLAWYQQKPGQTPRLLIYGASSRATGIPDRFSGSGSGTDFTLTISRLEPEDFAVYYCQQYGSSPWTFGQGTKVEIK ; its t½ = 0.6

Notebook: H4H25637P (antibody, V domains shown) VH: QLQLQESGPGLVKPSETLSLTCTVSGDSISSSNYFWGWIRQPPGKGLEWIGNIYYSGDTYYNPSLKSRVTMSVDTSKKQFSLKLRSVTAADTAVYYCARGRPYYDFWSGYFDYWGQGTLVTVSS VL: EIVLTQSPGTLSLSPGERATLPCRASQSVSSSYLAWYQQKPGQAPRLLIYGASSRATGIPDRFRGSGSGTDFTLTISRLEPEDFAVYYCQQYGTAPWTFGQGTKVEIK , t½ read as 1.2
